# Tested System: [35S]abl SH-2 / activated EGF receptor (Homo sapiens, UniProt P00519)
# Construct: containing the SH-2 domain of abl; made in house; host or cells: abl SH-2 fusion: bacteria, labelled in vivo with 35S; EGFR partner: EGF-treated 3T3 cells transfected with human EGFR, immunoprecipitated
# Sequence (P00519 127-217 limits assumed): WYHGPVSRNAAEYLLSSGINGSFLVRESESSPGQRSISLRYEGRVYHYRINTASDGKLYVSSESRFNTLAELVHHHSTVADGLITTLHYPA
# Assay Notes: in vitro inhibition of [35S]abl SH-2 interactions with activated EGF receptor
# Assay type: binding
Would you kindly list pIC50 for each of these compounds?
Note on units: pIC50 is unitless, being -log10 of a concentration expressed in mol/L.

Prompt: Using known records, supply pIC50 for C(CCCCCCNC1=NCCN1C1=NCCN1)CCCCCNC1=NCCN1C1=NCCN1 [dihydroiodide]
Completion: 5.92

Prompt: Please supply the value of reported pIC50 for the item C(CCCCNC1=NCCN1C1=NCCN1)CCCCNC1=NCCN1C1=NCCN1 [dihydroiodide]
Completion: 5.89
